Values were extracted from paper PMC7730235.

biological target: kinase domain of BMX (Homo sapiens); construct: The kinase domains of JAK3 and BMX at 2 μM; test: Mass spectrometric investigation of covalent binding to BMX (ESI-TOF); conditions: 1.5-fold molar excess of inhibitor, 4 °C, 60 min
test-readout: BMX covalent adduct fraction, 60 min (%)
Your answer is read as %, so omit the unit and give the number.

(Q) Give its BMX covalent adduct fraction, 60 min value. Item: C=CC(=O)Nc1cccc(-c2c[nH]c3ncc(NC(=O)c4cccs4)cc23)c1 [Compound 12c]
(A) 100

(Q) Try C=CC(=O)Nc1cccc(-c2c[nH]c3ncccc23)c1 next.
(A) 100

(Q) // same read-out, input: C=CC(=O)Nc1cccc(-c2c[nH]c3ncc(NC(=O)CC4CCCC4)cc23)c1 [Compound 12g]
(A) 100

(Q) Moving on to C=CC(=O)Nc1cccc(-c2c[nH]c3ncc(C(N)=O)cc23)c1 [Compound 10a]
(A) 100

(Q) Now consider C=CC(=O)Nc1cccc(-c2c[nH]c3ncc(C(=O)NC4CCCC4)cc23)c1 [Compound 11a] and answer again.
(A) 67

(Q) Entry C=CC(=O)Nc1cccc(-c2c[nH]c3ncc(NC(=O)Cc4cccs4)cc23)c1 [Compound 12i] please
(A) 100

---

Molecular target: BLK (Homo sapiens, UniProt P51451)
Construct: purchased Reaction Biology Corporation
Sequence (P51451 whole entry): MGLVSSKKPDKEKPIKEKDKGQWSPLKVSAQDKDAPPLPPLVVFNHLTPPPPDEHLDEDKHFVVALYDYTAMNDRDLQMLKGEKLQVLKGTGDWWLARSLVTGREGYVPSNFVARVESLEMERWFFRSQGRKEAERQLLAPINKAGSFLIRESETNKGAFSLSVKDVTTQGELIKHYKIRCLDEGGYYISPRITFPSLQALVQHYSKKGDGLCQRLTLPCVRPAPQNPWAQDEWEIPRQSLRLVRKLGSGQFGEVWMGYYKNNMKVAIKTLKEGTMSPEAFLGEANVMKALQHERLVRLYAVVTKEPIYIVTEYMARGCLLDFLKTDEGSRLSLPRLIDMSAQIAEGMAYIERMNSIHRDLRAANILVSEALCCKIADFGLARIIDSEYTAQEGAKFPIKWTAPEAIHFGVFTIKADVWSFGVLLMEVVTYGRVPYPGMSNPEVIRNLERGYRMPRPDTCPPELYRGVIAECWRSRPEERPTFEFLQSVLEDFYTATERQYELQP
Assay: Radiometric kinase assay (Reaction Biology HotSpot)
Type: biochemical
Conditions: 200 nM compound, duplicate mean, [ATP] = 10 μM; read-out: Residual Activity @ 200 nM, BLK
Method: If not mentioned differently, in vitro profiling of compounds was performed at Reaction Biology Corporation using the HotSpot™ assay platform.
Record form. Attribute: remaining activity at 0.2 µM. Fill in for each entry.
Provide the reading as a plain figure in %.

(Q) What does the data say about its remaining activity at 0.2 µM? Entry: C=CC(=O)Nc1cccc(-c2c[nH]c3ncc(C(N)=O)cc23)c1 [Compound 10a]
(A) 82.4

(Q) // same read-out, input: CCC(=O)Nc1cccc(-c2c[nH]c3ncc(NC(=O)C4CCCC4)cc23)c1 [Compound 12b]
(A) 95.1

(Q) Moving on to the next compound: C=CC(=O)Nc1cccc(-c2c[nH]c3ncccc23)c1 [Compound 9a]
(A) 95.8

(Q) Try C=CC(=O)Nc1cccc(-c2c[nH]c3ncc(NC(=O)c4cccs4)cc23)c1 [Compound 12c] next.
(A) 8.6

---

Sequence of the target: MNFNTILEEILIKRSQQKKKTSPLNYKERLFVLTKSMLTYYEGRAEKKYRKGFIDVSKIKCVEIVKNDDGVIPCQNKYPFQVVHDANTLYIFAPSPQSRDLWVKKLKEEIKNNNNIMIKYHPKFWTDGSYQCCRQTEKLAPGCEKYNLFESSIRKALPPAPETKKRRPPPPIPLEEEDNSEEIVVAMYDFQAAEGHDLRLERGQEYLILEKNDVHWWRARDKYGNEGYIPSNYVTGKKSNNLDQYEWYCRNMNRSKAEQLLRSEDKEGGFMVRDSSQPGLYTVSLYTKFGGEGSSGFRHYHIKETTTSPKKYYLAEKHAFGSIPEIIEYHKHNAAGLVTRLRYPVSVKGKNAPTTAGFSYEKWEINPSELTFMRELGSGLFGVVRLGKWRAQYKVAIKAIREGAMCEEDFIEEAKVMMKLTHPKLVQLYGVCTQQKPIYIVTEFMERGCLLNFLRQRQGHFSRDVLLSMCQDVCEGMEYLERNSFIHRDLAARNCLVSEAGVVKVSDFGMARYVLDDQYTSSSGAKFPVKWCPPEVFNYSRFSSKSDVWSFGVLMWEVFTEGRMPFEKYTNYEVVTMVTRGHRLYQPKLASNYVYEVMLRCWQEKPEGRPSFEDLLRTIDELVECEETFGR
Field: pIC50. Provide a value for each of the compounds that follow.
Reminder that pIC50 is minus the log10 of a molar concentration.

(Q) Entry under review: C=CC(=O)Nc1cccc(-c2c[nH]c3ncc(NC(=O)c4cccs4)cc23)c1 [Compound 12c] . Reported pIC50?
(A) 7.89

(Q) Moving on to the next compound: C=CC(=O)Nc1cccc(-c2c[nH]c3ncc(NC(=O)C4CCCC4)cc23)c1 [Compound 12a]
(A) 7.51

---

target: Full length BMX (C-terminal NanoLuc fusion) (Homo sapiens, UniProt P51813); construct: Full length BMX and BTK was cloned into pFC32K; expressed in transfected cells; host or cells: HEK293T; experiment: Cellular NanoBRET target engagement assay in HEK293T cells; format: cell-based; settings: 0.5 µM Tracer K4, 2 h incubation
test-readout: IC50

(Q) Requested field: IC50. Item: C=CC(=O)Nc1cccc(-c2c[nH]c3ncccc23)c1
(A) 26 nM

(Q) And then C=CC(=O)Nc1cccc(-c2c[nH]c3ncc(NC(=O)c4cccs4)cc23)c1 [Compound 12c] , what is it?
(A) 3 nM

(Q) Also C=CC(=O)Nc1cccc(-c2c[nH]c3ncc(C(N)=O)cc23)c1 [Compound 10a] ?
(A) 765 nM

(Q) Then this compound: CCC(=O)Nc1cccc(-c2c[nH]c3ncc(C(=O)NC4CCCC4)cc23)c1 [Compound 11b]
(A) > 10000 nM

(Q) What about this compound? C=CC(=O)Nc1cccc(-c2c[nH]c3ncc(NC(=O)CC4CCCC4)cc23)c1 [Compound 12g]
(A) 3 nM

---

Please go through the items and note down their IC50.
Target sequence: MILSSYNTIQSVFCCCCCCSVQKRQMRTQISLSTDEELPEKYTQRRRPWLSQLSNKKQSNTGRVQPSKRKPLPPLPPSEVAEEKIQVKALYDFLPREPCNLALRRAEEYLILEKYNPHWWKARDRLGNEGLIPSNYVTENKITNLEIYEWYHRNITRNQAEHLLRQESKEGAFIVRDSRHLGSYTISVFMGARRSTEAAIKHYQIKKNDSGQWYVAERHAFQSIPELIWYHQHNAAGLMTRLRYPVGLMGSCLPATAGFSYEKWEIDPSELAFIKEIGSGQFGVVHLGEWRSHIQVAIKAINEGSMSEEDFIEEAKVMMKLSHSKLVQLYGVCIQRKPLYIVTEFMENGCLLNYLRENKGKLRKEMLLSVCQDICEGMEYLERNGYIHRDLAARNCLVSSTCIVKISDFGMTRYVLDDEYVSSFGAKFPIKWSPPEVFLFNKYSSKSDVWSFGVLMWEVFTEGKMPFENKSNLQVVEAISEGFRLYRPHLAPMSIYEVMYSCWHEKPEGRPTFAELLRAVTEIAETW

(Q) Need IC50 of CCC(=O)Nc1cccc(-c2c[nH]c3ncc(C(=O)NC4CCCC4)cc23)c1 [Compound 11b] , thanks.
(A) > 10000 nM

(Q) What about this compound? C=CC(=O)Nc1cccc(-c2c[nH]c3ncc(NC(=O)c4cccs4)cc23)c1 [Compound 12c]
(A) 10 nM

(Q) What about this compound? C=CC(=O)Nc1cccc(-c2c[nH]c3ncc(C(=O)NC4CCCC4)cc23)c1 [Compound 11a]
(A) > 1000 nM

(Q) Param item: C=CC(=O)Nc1cccc(-c2c[nH]c3ncc(C(N)=O)cc23)c1 [Compound 10a]
(A) 28 nM

(Q) Here is the next compound: C=CC(=O)Nc1cccc(-c2c[nH]c3ncc(NC(=O)C4CCCC4)cc23)c1 [Compound 12a]
(A) 13 nM

---

molecular target: UniProt O60674
Sequence (O60674 whole entry): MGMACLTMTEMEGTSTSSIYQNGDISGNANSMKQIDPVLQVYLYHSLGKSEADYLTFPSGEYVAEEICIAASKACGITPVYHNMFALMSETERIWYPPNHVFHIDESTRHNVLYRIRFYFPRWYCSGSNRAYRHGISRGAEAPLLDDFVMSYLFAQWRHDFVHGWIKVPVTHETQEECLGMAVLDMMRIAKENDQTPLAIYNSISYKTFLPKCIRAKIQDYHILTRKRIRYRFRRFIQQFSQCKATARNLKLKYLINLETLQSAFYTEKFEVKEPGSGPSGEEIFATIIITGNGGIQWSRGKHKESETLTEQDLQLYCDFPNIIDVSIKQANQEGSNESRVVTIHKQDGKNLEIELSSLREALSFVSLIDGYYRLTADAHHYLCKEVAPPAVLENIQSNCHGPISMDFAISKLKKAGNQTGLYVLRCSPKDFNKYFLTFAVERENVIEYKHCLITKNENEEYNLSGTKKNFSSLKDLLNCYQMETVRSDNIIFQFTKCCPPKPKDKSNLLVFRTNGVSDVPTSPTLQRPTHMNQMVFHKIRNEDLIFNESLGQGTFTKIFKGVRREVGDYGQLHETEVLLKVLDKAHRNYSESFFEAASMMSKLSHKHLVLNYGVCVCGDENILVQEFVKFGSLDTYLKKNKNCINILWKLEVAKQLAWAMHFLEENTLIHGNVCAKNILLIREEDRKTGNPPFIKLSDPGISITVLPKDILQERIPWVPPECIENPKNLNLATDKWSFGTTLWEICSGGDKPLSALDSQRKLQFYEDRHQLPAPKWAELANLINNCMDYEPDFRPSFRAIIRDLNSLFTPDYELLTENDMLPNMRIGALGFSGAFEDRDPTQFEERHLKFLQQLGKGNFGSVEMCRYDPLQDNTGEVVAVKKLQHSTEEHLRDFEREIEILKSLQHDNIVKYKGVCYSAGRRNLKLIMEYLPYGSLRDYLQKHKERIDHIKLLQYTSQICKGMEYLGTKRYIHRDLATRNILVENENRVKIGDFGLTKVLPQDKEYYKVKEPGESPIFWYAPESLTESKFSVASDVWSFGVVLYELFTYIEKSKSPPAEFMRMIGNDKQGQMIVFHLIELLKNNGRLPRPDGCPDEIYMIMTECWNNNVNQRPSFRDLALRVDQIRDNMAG
test-readout: IC50 (nM)
// return numeric value only (unit: nM, not printed)

(Q) Query (compound): C=CC(=O)Nc1cccc(-c2c[nH]c3ncc(C(N)=O)cc23)c1 [Compound 10a] ; field requested: IC50
(A) 1120

---

Target: BMX (Homo sapiens)
Sequence (P51813 1-675): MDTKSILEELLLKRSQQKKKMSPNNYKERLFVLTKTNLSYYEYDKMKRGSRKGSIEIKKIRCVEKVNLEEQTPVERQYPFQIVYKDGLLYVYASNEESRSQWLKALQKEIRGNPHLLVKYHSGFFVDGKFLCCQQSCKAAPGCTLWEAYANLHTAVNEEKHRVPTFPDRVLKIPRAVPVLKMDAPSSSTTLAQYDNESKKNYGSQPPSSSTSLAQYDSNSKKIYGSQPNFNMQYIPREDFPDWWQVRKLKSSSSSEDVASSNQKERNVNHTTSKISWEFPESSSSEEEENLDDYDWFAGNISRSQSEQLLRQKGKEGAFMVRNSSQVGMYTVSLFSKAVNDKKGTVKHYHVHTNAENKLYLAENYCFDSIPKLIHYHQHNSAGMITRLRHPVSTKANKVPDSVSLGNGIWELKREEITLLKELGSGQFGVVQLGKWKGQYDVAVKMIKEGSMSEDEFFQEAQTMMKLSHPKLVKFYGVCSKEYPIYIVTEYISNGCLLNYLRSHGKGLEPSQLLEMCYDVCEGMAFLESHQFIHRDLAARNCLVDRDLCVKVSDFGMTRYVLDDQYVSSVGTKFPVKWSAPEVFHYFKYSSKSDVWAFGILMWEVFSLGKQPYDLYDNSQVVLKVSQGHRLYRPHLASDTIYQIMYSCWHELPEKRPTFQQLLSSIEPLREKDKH
Provide the recorded pIC50 for the entries that follow.
Schema: pIC50 number; meaning minus log10 of the concentration expressed in molar units.

(Q) So what does the record say about pIC50 for C=CC(=O)Nc1cccc(-c2c[nH]c3ncc(NC(=O)CC4CCCC4)cc23)c1 [Compound 12g] ?
(A) 8.22

(Q) Moving on to the next molecule: CCC(=O)Nc1cccc(-c2c[nH]c3ncc(NC(=O)C4CCCC4)cc23)c1 [Compound 12b]
(A) 6.24

(Q) Ok, now C=CC(=O)Nc1cccc(-c2c[nH]c3ncc(NC(=O)Cc4cccs4)cc23)c1 [Compound 12i]
(A) 7.80

(Q) Same for C=CC(=O)Nc1cccc(-c2c[nH]c3ncc(C(=O)NC4CCCC4)cc23)c1 [Compound 11a]
(A) 6.27

(Q) Another molecule to check: C=CC(=O)Nc1cccc(-c2c[nH]c3ncc(NC(=O)c4ccco4)cc23)c1 [Compound 12d]
(A) 8.40

(Q) Also C=CC(=O)Nc1cccc(-c2c[nH]c3ncc(C(N)=O)cc23)c1 [Compound 10a] , if possible.
(A) 7.54
